Assay Remarks: Cataleptic effects in rat, procedure based on Tedeschi et al.
Format: in vivo
Condition Info: in vivo; rat, IP; fumarate salts, expressed as free base; read-out: ED50, cataleptic effect
Observed Property: ED50

Lookup: Recorded ED50 for CN(C(=O)c1ccc(N)cc1)C1CCN(C2CCCCC2)C1 (single isomer, unassigned; (-)) [(-)-isomer] , please?
Found: > 100 mg/kg
